Entry source: PubChem BioAssay (NCI)

- System: HCC-2998 colon
- procedureDetails: NCI tumour cell line growth inhibition, 48 h
Task for the reader: assign each of the following molecules its reported TGI.
Field: numeric (µM). Do not append units.

Qu. Which TGI is reported for this molecule? Nc1cc2ncnn2c(SCC(=O)N/N=C/C(Br)=C\c2ccccc2)n1
Ans. 40.6

Qu. Now this one: O=[N+]([O-])c1cc(-[n+]2cc([O-])on2)ccc1Cl
Ans. 34.9

Qu. Now this one: Cn1cc(C2=C(c3cn(CCCN)c4ccccc34)C(=O)NC2=O)c2ccccc21
Ans. 16.2

* * *

- System: EKVX NSCLC
- procedureDetails: NCI tumour cell line growth inhibition, 48 h
Task for the reader: assign each of the following compounds its reported TGI.

Qu. Which TGI is reported for this compound? CCN(CC)c1ccc(-c2cc(-c3cc(OC)c(OC)c(OC)c3)nc(N3CCC(O)CC3)c2C#N)cc1
Ans. > 100 µM

Qu. Now this one: COC(=O)Cc1c([C@H]2[C@H](CC(=O)OC)c3ccccc3N2S(=O)(=O)c2ccc(C)cc2)[nH]c2ccccc12
Ans. > 100 µM

Qu. Now this one: O=C(CC(C(=O)c1ccsc1)c1ccsc1)c1ccsc1 (stereo not drawn)
Ans. > 100 µM

* * *

Task for the reader: assign each of the following compounds its reported TGI.
- System: A549 NSCLC
- procedureDetails: NCI tumour cell line growth inhibition, 48 h

Qu. Which TGI is reported for this compound? COC(=O)c1ccc(C)cc1CC1Cc2cccc(C)c2C1=O (stereo not drawn)
Ans. > 100 µM

Qu. Now this one: CCCCCCCCCCCCCCCC(=O)OCCOCCOCCOCCOCCOC(=O)CCCCCCCCCCCCCCC
Ans. > 100 µM

Qu. Now this one: COS(C)(=O)=O
Ans. > 2 µM

* * *

- Test system: NCI-H226 lung
- procedureDetails: NCI tumour cell line growth inhibition, 48 h
valueType: TGI

Qu. Which TGI is reported for this molecule? COc1ccc(N=Nc2ccc3oc(=O)c(C(=O)Nc4ccccc4C)cc3c2)cc1
Ans. > 10 µM

Qu. Now this one: NS(=O)(=O)c1ccc(NC(=O)C2C(=O)C(=O)N(c3ccc(S(N)(=O)=O)cc3)C2=O)cc1 (stereo unspecified)
Ans. > 100 µM

Qu. Now this one: NC(CCP(=O)(O)O)C(=O)O (stereo unspecified)
Ans. > 100 µM

Qu. Now this one: CC1C=CC(C(N)C(=O)O)O1 (stereo unspecified)
Ans. > 100 µM

Qu. Now this one: COC(=O)CC(C(C(=O)OC)C(=O)OC)N1C(=O)OC(c2ccccc2)C1c1ccccc1 (stereo unspecified)
Ans. > 100 µM

Qu. Now this one: CC(C)OC(=O)[C@H]1ON2O[C@H](O[C@@H]3CCCC[C@H]3c3ccccc3)C([Si](C)(C)c3ccccc3)[C@H]3OC(=O)[C@@H]1C32 (stereo partly specified)
Ans. > 100 µM

* * *

- Test system: M14 melanoma
- procedureDetails: NCI tumour cell line growth inhibition, 48 h
valueType: TGI

Qu. Which TGI is reported for this compound? CS(=O)(=O)c1cccc(Nc2ncc3cc(-c4ccccc4Cl)ccc3n2)c1
Ans. > 33.3 µM

Qu. Now this one: CCc1c(CNC2=NCCN2)c(CC)c(CNC2=NCCN2)c(CC)c1CNC1=NCCN1
Ans. > 100 µM

Qu. Now this one: CC(C)(C)[C@H]1CO[C@]2(c3ccccc3)[C@@H]3C[C@@H]3C(=O)N12
Ans. > 100 µM

Qu. Now this one: COCN(C)c1nc(N(C)C)nc(N(C)C)n1
Ans. > 100 µM

Qu. Now this one: CN1C(=O)C(C(=O)Nc2ccccn2)C2C[C@@]1(C)Oc1ccccc12 (some centres not stated)
Ans. > 100 µM

Qu. Now this one: COc1ccc2c(c1)CCc1cc(OC)ccc1/[N+]([O-])=[N+]\2[O-]
Ans. > 46.4 µM

Qu. Now this one: COc1ccc(-c2cn(-c3ccc(OC)c(OC)c3)c(=O)[nH]2)cc1
Ans. > 100 µM

Qu. Now this one: CC(C)(C)OC(=O)[C@@H]1ON2O[C@H](OC3CCCC3(c3ccccc3)c3ccccc3)C[C@H]3OC(=O)[C@@H]1[C@H]32 (some centres not stated)
Ans. > 100 µM

Qu. Now this one: C=CCN1C[C@H](C)N([C@H](c2ccc(C(=O)N(CC)CC)cc2)c2cccc(OC)c2)C[C@H]1C
Ans. > 100 µM

Qu. Now this one: Oc1ccc2ccccc2c1C=NCc1c(O)ccc2ccccc12
Ans. > 100 µM

Qu. Now this one: c1ccc(Cn2c(-c3ccc(-c4ccccc4)cc3)cc3ccccc32)cc1
Ans. > 100 µM

Qu. Now this one: c1cc2nnc1SCCSCCSCCSc1ccc(nn1)SCCSCCSCCS2
Ans. > 100 µM

Qu. Now this one: COc1ccc(O)cc1C(O)c1ccccc1 (configuration not stated)
Ans. > 100 µM

Qu. Now this one: CCOC(=O)c1[nH]c2cc(OC)c(OC)cc2c1CN(C)C
Ans. > 100 µM

Qu. Now this one: COc1ccc(N2C(=O)/C(=C\c3ccccc3)SC2c2cc(OC)c(OC)c(OC)c2)cc1 (configuration not stated)
Ans. > 100 µM

Qu. Now this one: CCOC(=O)c1c(C)nc2c(c1N)/C(=C/c1ccccn1)C(=O)N2Cc1ccccc1
Ans. 2.39 µM

Qu. Now this one: NC(CCP(=O)(O)O)C(=O)O (configuration not stated)
Ans. > 100 µM

Qu. Now this one: O=CC1C(Cl)=Nc2nc3ccccc3n2C1c1ccccc1 (configuration not stated)
Ans. 64.6 µM

Qu. Now this one: C[N+](C)(C)c1cc[c]([Sn]([c]2ccc([N+](C)(C)C)cc2)([c]2ccc([N+](C)(C)C)cc2)[c]2ccc([N+](C)(C)C)cc2)cc1
Ans. > 100 µM

Qu. Now this one: O=C1OCC(c2ccc(Cl)cc2)=C1Cl
Ans. 41.8 µM

Qu. Now this one: COC(=O)c1cc(O)c(O)c(O)c1-c1c(O)c(O)c(O)c(SC[C@H](NC(=O)OCc2ccccc2)C(=O)OCc2ccccc2)c1C(=O)OC
Ans. 36.8 µM

Qu. Now this one: CCCCNC(=S)OCCC(C)CCCC(C)C (configuration not stated)
Ans. > 100 µM

Qu. Now this one: Cn1c(=O)cc2[nH]c3ccccc3n2c1=O
Ans. > 100 µM

Qu. Now this one: CCOC(=O)/C(C(=S)NCc1ccccc1)=C(/N)N1CCCC1
Ans. > 100 µM

Qu. Now this one: N#Cc1ccc(Oc2ccccc2)cc1C#N
Ans. > 100 µM

Qu. Now this one: [N-]=[N+]=NCCCn1c2c(c3ccc([N+](=O)[O-])cc3c1=O)C(=O)c1cc(-c3ccccc3)ccc1-2
Ans. > 100 µM

Qu. Now this one: Cn1c(=O)c(Oc2ccc(F)cc2F)cc2cnc(N[C@@H]3CCOC3)nc21
Ans. > 25 µM
